From: ChEMBL document CHEMBL3714714

# target-entity: Hepatocyte nuclear factor 4-alpha (Rattus norvegicus)
# Sequence (P22449 whole entry): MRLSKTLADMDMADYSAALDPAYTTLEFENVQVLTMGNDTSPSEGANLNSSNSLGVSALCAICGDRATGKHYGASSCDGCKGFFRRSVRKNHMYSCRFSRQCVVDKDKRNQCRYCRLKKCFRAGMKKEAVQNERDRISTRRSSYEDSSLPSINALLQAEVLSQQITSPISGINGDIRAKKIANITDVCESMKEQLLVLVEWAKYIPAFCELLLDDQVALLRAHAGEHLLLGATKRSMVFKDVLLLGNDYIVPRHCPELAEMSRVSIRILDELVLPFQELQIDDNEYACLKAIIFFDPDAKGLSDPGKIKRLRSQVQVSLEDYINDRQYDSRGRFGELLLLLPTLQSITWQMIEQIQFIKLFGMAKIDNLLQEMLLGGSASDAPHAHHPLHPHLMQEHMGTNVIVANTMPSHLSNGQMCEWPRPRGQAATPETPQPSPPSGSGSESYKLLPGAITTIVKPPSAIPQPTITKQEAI
# protocol: Antagonist activity against rat HNF4alpha1 expressed in African green monkey CV1 cells assessed as reduction in endogenous agoinst-induced luciferase expression incubated for 24 hrs by firefly luciferase reporter gene assay
Record form. Attribute: IC50. Fill in for each entry.
API: value field is a number in nM; no unit string.

Record Cc1ccc(C)c(N/N=C(\c2ccc(C(=O)O)cc2)c2cc3c(cc2C)C(C)(C)CCC3(C)C)c1 ; system Hepatocyte nuclear factor 4-alpha (Rattus norvegicus); IC50 = 19

Record CCCCCCO/N=C(\c1ccc(C(=O)O)cc1)c1cc2c(cc1OCC)C(C)(C)CCC2(C)C ; system Hepatocyte nuclear factor 4-alpha (Rattus norvegicus); IC50 = 1

Record CCOc1cc2c(cc1/C(=N/Nc1cc(F)ccc1F)c1ccc(C(=O)O)cc1)C(C)(C)CCC2(C)C ; system Hepatocyte nuclear factor 4-alpha (Rattus norvegicus); IC50 = 1

Record Cc1ccc(S(=O)(=O)Nc2c(C)c(Cc3ccc(C(=O)O)cc3)cc3c2C(C)(C)CCC3(C)C)cc1 ; system Hepatocyte nuclear factor 4-alpha (Rattus norvegicus); IC50 = 22

* * *

Record form. Attribute: Ki. Fill in for each entry.
# target-entity: Retinoic acid receptor RXR-alpha (Homo sapiens, UniProt P19793)
# Sequence (P19793 whole entry): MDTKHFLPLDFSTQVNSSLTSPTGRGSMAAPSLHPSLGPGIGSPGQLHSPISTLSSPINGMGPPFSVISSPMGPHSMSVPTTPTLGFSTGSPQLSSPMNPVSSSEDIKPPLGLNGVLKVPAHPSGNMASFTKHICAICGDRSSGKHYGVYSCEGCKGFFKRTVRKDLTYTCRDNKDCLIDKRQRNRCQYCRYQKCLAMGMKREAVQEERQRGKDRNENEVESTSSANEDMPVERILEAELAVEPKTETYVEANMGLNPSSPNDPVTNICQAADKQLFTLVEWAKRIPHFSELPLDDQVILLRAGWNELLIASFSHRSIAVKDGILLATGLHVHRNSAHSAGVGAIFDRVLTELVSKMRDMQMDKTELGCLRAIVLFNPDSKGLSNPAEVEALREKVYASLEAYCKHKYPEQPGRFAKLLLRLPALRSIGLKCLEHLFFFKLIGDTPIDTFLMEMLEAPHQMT
API: value field is a number in nM; no unit string.

# compound CCCCCCO/N=C(\c1ccc(C(=O)O)cc1)c1cc2c(cc1OCC)C(C)(C)CCC2(C)C ; its Ki = 1900

# compound CCOc1cc2c(cc1C(=O)c1ccc(C(=O)O)cc1)C(C)(C)CCC2(C)C ; its Ki = 824

# compound CCCCOC(c1ccc(C(=O)O)cc1)c1cc2c(cc1OCC)C(C)(C)CCC2(C)C (stereo not given) ; its Ki = 2700

# compound CCOc1cc2c(cc1/C(=N/OCCC(C)C)c1ccc(C(=O)O)cc1)C(C)(C)CCC2(C)C ; its Ki = 4600

# compound CCOc1cc2c(cc1C(=O)c1ccc(C(=O)O)cc1)C(C)(C)CCO2 ; its Ki = 3000

# compound CC1(C)CCC(C)(C)c2cc(C(=O)c3ccc(C(=O)O)cc3)c(OCC(F)(F)F)cc21 ; its Ki = 1500

* * *

# target-entity: Hepatocyte nuclear factor 4-alpha (Rattus norvegicus)
# protocol: Agonist activity at rat HNF4alpha1 expressed in African green monkey CV1 cells incubated for 24 hrs by firefly luciferase reporter gene assay relative to LG0100695
# Assay type: functional, cell-based
# measurement-conditions: CV-1
outcome-measure: Efficacy (%)
API: value field is a number in %; no unit string.

# compound CCOc1cc2c(cc1C(=O)c1ccc(C(=O)O)cc1)C(C)(C)CCO2 ; its Efficacy = 68

# compound Cc1c(C(=O)c2ccc(C(=O)O)cc2)cc2c(c1[N+](=O)[O-])OCCC2(C)C ; its Efficacy = 88

# compound CC1(C)CCC(C)(C)c2cc(C(=O)c3ccc(C(=O)O)cc3)c(OCC(F)(F)F)cc21 ; its Efficacy = 33

# compound CCOc1cc2c(cc1C(=O)c1ccc(C(=O)C(=O)O)cc1)C(C)(C)CCC2(C)C ; its Efficacy = 95

# compound Cc1cc2c(c(O)c1C(=O)c1ccc(C(=O)O)cc1)C(C)(C)CCC2(C)C ; its Efficacy = 103

# compound Cc1c(C(=O)c2ccc(C(=O)O)cc2)cc2c(c1[N+](=O)[O-])C(C)(C)CCC2(C)C ; its Efficacy = 43

# compound CC1(C)CCC(C)(C)c2c1cc(C(=O)c1ccc(C(=O)O)cc1)c(OCC(F)F)c2[N+](=O)[O-] ; its Efficacy = 57

# compound COc1c(C(=O)c2ccc(C(=O)O)cc2)cc2c(c1C)N(C)CCC2(C)C ; its Efficacy = 42

# compound CCOc1cc2c(cc1C(=O)c1ccc(C(=O)O)cc1)C(C)(C)CCC2(C)C ; its Efficacy = 100
